Tested target: T1, neurotensin receptors (frozen tissue sections from receptor-positive human tumors) (human, UniProt P30989 1-418)
T1 construct: whole, on cells
T1 sequence (P30989 whole entry): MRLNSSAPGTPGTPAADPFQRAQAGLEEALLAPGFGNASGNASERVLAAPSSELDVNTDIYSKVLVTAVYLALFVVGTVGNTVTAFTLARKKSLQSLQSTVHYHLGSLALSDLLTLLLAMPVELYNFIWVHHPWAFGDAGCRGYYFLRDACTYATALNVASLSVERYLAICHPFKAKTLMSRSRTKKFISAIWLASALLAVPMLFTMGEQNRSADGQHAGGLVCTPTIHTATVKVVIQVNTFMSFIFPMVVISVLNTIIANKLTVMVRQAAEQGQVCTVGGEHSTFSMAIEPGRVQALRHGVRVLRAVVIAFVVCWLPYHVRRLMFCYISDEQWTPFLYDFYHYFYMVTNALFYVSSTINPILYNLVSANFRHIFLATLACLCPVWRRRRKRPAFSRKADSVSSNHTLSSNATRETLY
Run description: competitive binding vs radioiodinated native neurotensin, human tumor sections
[ ]: non-standard residue; d: D form. The star is where a group is joined. Gly(1-amidinopiperidin-4-yl) = N=C(N)N1CCC([C@H](N)C(=O)O)CC1; DTPA = O=C(O)CN(CCN(CC(=O)O)CC(=O)O)CCN(CC(=O)O)CC(=O)*; Phe(4-guanidino) = N=C(N)Nc1ccc(C[C@H](N)C(=O)O)cc1; Tle = CC(C)(C)[C@H](N)C(=O)O
Readout name: IC50 (nM)

I = {DTPA}-[dK]P[Phe(4-guanidino)]RPY[Tle]L-OH (also called Compound IX; DTPA-DLys-Pro-Phe(4-guanyl)-Arg-Pro-Tyr-tBuGly-Leu-OH) [DTPA-DLys-Pro-(4-Gu)Phe-Arg-Pro-Tyr-tBuGly-Leu-OH]
II = {DTPA}-[dK]P[Gly(1-amidinopiperidin-4-yl)]RPY[Tle]L-OH (also called Compound X) [DTPA-DLys-Pro-Gly(PipAm)-Arg-Pro-Tyr-tBuGly-Leu-OH]
Smaller IC50 value, I vs II ? Kindly give the label for the entry you pick. II
